Data credit: paper PMC6151500

target: Homo sapiens butyrylcholinesterase (hBuChE) (Homo sapiens, UniProt P06276)
Sequence (P06276 29-602): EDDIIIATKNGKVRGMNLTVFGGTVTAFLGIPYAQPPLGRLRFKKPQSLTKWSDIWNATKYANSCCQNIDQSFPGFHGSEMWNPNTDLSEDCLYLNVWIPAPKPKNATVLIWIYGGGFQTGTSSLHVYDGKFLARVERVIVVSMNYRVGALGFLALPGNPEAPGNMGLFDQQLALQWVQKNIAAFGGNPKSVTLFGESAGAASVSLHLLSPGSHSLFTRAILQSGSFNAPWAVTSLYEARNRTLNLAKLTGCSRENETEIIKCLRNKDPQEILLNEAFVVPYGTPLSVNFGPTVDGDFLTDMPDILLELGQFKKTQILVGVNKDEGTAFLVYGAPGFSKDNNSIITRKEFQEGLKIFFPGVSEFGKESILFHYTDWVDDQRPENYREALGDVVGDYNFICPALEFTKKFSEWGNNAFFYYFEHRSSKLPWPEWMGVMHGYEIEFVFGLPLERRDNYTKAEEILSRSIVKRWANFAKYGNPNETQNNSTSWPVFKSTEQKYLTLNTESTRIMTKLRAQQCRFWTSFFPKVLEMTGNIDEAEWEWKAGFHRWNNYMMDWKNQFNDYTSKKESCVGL
pIC50: −log10 of the molar value.
RECORDED ENDPOINT: pIC50

>>> print(df.to_string())
                            molecule_smiles  recorded_endpoint  recorded_measurement
0  CN(C)c1ccc(C(=C2C=CC(=[N+](C)C)C=C2)c2ccc(N(C)C)cc2)cc1              pIC50                  6.05
